Test system: MDA-MB-468 cells
Test: IC50 in MDA-MB-468 cells, 72 hours incubation
Type: cell-based
Conditions: Homo sapiens
pIC50: −log10 of the molar value.
MEASURED_ENDPOINT: pIC50

input: What value of measured pIC50 is listed for `C/C(=N\Nc1nc2ccccc2n1C)c1nccs1` ?
output: 6.00 to 7.00

* * *

Test system: BT-474 cells
Assay: IC50 in BT-474 cells, 72 hours incubation
Format: cell-based
MEASURED_ENDPOINT: IC50

input: Any idea what its IC50 is? The compound is CC(=NNc1nc2cc(F)c(F)cc2n1C)c1ccc(F)cn1 [SI-12]
output: < 100 nM
